- study-system: T1, MBP-fused PDZ domain of SNTA1 (human, UniProt Q13424 87-170)
- T1 sequence (looked up): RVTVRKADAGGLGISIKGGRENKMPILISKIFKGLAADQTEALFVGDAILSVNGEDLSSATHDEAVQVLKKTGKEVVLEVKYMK
- protocol-details: SPR
Where no end group is shown, it is not given here.
result-type: Kd (µM)

>>> quantitative_result("RSSRTRRETQL (not fully specified (N-terminus); also: biotinylated, position not given here) [biotinylated HPV16 E6 peptide]")
101
